Test system: OV90
Test details: Primary qHTS to identify gynecologic anti-cancer compounds using libraries of approved drugs and bioactive compounds (AID 1345084); note: nearly all actives have a fitted effect of over 55% in size
Applied conditions: Gynecologic cancer cell panel viability, ATPlite luminescence, 48 h; series mostly up to 57.5 µM
Records with an inconclusive call do not appear. Activity calls are given as the source filed them. Calls come from the whole dose curve; as a rule, active = well fitted cell-killing curve with a large enough effect; inconclusive = small, poorly fitted or top-dose-only effect, or effect the other way; inactive = flat fitted curve, though single readings scatter. Where a SMILES comes first, the peptide text is derived from it.
Log the outcome using a class from label 1 for active, label 0 for inactive

Short answer needed: outcome of this test for CC(=O)N[C@@H](CO)C(=O)N[C@@H](CC(=O)O)C(=O)N[C@@H](CCCCN)C(=O)N1CCC[C@H]1C(=O)O (Ac-SDKP-OH) ? label 0

Short answer needed: outcome of this test for Cc1cccc(C)c1NC(=O)c1cc(S(N)(=O)=O)c(Cl)cc1O ? label 0

Short answer needed: outcome of this test for C[C@H](N)C(=O)N[C@@H](C)C(=O)NC1[C@H]2CN(c3nc4c(cc3F)c(=O)c(C(=O)O)cn4-c3ccc(F)cc3F)C[C@@H]12 (stereo not given in full) ? label 0

Short answer needed: outcome of this test for C[C@]12CCC(=O)C=C1CC[C@@H]1[C@@H]2[C@@H](O)C[C@@]2(C)[C@H]1CC[C@]2(O)C(=O)COC(=O)CCC(=O)O ? label 0

Short answer needed: outcome of this test for O=C1CC[C@H](C(=O)N2CCCCC2)N1 ? label 0

Short answer needed: outcome of this test for CC(C)OP(=O)(CP(=O)(OC(C)C)OC(C)C)OC(C)C ? label 0

Short answer needed: outcome of this test for c1ccc(C(O[C@H]2CCCN(CCc3ccc4c(c3)OCO4)C2)c2ccccc2)cc1 ? label 0

Short answer needed: outcome of this test for O=C(OCC1(COC(=O)c2cccnc2)CCCC(COC(=O)c2cccnc2)(COC(=O)c2cccnc2)C1O)c1cccnc1 ? label 0

Short answer needed: outcome of this test for CCN(CC)CC(=O)OCC(=O)[C@@]1(O)CC[C@H]2[C@@H]3CCC4=CC(=O)CC[C@]4(C)[C@H]3[C@@H](O)C[C@@]21C ? label 0

Short answer needed: outcome of this test for COc1cc2c(cc1OC)C(=O)CC2 ? label 0

###

Test details: qHTS of pediatric cancer cell lines to identify multiple opportunities for drug repurposing: Primary screen for SJ-GBM2 cells (AID 1347091);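 note: plate controls were DMSO neutral control for no effect and bortezomib for full effect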
Applied conditions: SJ-GBM2 viability, CellTiter-Glo luminescence, 48 h; series mostly up to 46 µM
Inconclusive results are not listed. Active and inactive are the calls of the source. The call rests on the fitted dose curve; in most records, active means well fitted cell-killing curve with a large enough effect; inconclusive means small, poorly fitted or top-dose-only effect; inactive means no such curve, though single readings can be large or run the other way.
Log the outcome using a class from active, inactive

Short answer needed: outcome of this test for CC(=O)N1CCN(c2ccc(O)cc2)CC1 ? inactive

Short answer needed: outcome of this test for Cc1cccc(OCC(O)CNC(C)(C)C)c1C (centres undefined) ? inactive

Short answer needed: outcome of this test for O=C(O)/C=C(\CC(=O)O)C(=O)O ? inactive

Short answer needed: outcome of this test for Cc1ccc(C(=O)C(=O)O)cc1C ? inactive

Short answer needed: outcome of this test for O=C(c1ccco1)N1CCNCC1 ? inactive

Short answer needed: outcome of this test for COc1cc2c(cc1OC)C(=O)CC2 ? inactive

Short answer needed: outcome of this test for CCCCC(O)/C=C(C)/C=C/C=C/C(=O)N1CCCC1=O (centres undefined) ? inactive

Short answer needed: outcome of this test for CC(C)(C)NCC(O)COc1ccccc1OCC1CCCO1 (centres undefined) ? inactive

Short answer needed: outcome of this test for CCCCCCCCCCCCCCCCCCN(C)C ? inactive

Short answer needed: outcome of this test for C[C@H]1NCc2cc(-c3ccc4c(=O)c(C(=O)O)cn(C5CC5)c4c3OC(F)F)ccc21 ? inactive

###

Test details: qHTS of pediatric cancer cell lines to identify multiple opportunities for drug repurposing: Primary screen for Saos-2 cells (AID 1347097); note: nearly all actives have a fitted effect of over 40% in size; note: potency is the fitted concentration of half-maximal effect
Applied conditions: Saos-2 viability, CellTiter-Glo ATP luminescence, 48 h; series mostly up to 46 µM
Records with an inconclusive call do not appear. The source made the active and inactive calls. Calls follow the shape of the dose curve; as a rule, active = well fitted cell-killing curve with a large enough effect; inconclusive = small, poorly fitted or top-dose-only effect; inactive = no such curve, though single readings can be large or run the other way.
Assay endpoint: Potency

Illustrative cases are given below, each with its answer.
| Compound | Potency |
| --- | --- |
| O=C(COCCOCCOCC(=O)Nc1c(I)cc(I)c(C(=O)O)c1I)Nc1c(I)cc(I)c(C(=O)O)c1I | inactive |
| CCCCCCCCCCCCCCCC[N+](C)(C)Cc1ccccc1 | 23.7 µM (active) |
| C[N+]1(C)CCC(OC(=O)C(O)(c2ccccc2)C2CCCC2)C1 (stereo not given) | inactive |
| Cc1cc(CCCOc2c(C)cc(-c3noc(C(F)(F)F)n3)cc2C)on1 | inactive |

Per the records, this compound ( CC(=O)N(c1onc(C)c1C)S(=O)(=O)c1ccc(N)cc1 ) has Potency equal to inactive

###

Test details: Primary qHTS for inhibitors of nuclear receptor binding SET domain protein 2 (NSD2) in an RCH-ACV wild type WT cells (2C) (AID 1645877); note: nearly all actives have a fitted effect of over 70% in size
Applied conditions: RCH-ACV (leukaemia line) NSD2 WT (2C) viability, CellTiter-Glo, 72 h; series mostly up to 44.9 µM
Inconclusive results are not listed. Calls of active or inactive are those of the source. The call rests on the fitted dose curve; in most records, active means well fitted inhibition curve with a large enough effect; inconclusive means small, poorly fitted or top-dose-only effect; inactive means no such curve, though single readings can be large or run the other way.
Log the outcome using a class from t = active, f = inactive

Short answer needed: outcome of this test for CCCCCCCCCCCC[N+](C)(C)Cc1ccccc1 ? t

Short answer needed: outcome of this test for CCOC(=O)c1ccc(OCCN2C[C@H](O)[C@@H](O)[C@H](O)[C@H]2CO)cc1 ? f

Short answer needed: outcome of this test for Nc1ncnc2nc[nH]c12 ? f

Short answer needed: outcome of this test for CCOC(=O)N1CCC(Nc2ccc(Cl)cc2N)CC1 ? t

Short answer needed: outcome of this test for CN1N=C(C(N)=O)CCC1=O ? f

###

Test details: Cell Viability - LYMP1-003 - Assay at 24 hr (AID 963)
Applied conditions: LYMP1-003 lymphoblastoid cell viability; series mostly up to 92.2 µM
The source made the active and inactive calls. Calls come from the whole dose curve; as a rule, active = well fitted cell-killing curve with a large enough effect; inconclusive = small, poorly fitted or top-dose-only effect; inactive = flat fitted curve, though single readings scatter.
Log the outcome using a class from label 1 for active, label 0 for inactive

Example entries and their recorded answers appear below.
| Compound | Class label |
| --- | --- |
| O=C(NO)c1ccccc1 | label 0 |
| CCCC(=O)c1cc(O)c(O)cc1O | label 0 |
| OCc1c[nH]c2ccccc12 | label 0 |
| CC(C)(c1ccc(O)cc1)c1ccc(O)cc1 | label 0 |
| Oc1ccccc1 | label 0 |
| CCCCC(CC)COC(=O)c1ccccc1C(=O)O (centres undefined) | label 0 |
| Nc1c2ccccc2nc2ccccc12 | label 1 |
| O=C(Oc1ccccc1)c1ccccc1O | label 0 |

Short answer needed: outcome of this test for CC(C)(C)c1ccc(O)c(O)c1 ? label 0

Short answer needed: outcome of this test for Brc1ccccc1-c1ccccc1 ? label 0

Short answer needed: outcome of this test for Cc1cc(C(C)(C)C)c(O)c(C(C)(C)C)c1 ? label 0

Short answer needed: outcome of this test for O=C(c1ccccc1)c1ccccc1 ? label 0

Short answer needed: outcome of this test for CCCCCCCCCCCCCCCC[n+]1ccccc1 ? label 1

Short answer needed: outcome of this test for Nc1ccc(O)cc1 ? label 1

###

Target system: Cytochrome P450 2D6 (Homo sapiens)
Test details: Cytochrome P450 family 2 subfamily D member 6 (CYP2D6) small molecule antagonists: luciferase biochemical (cell-free) qHTS assay (AID 1645840); note: nearly all actives have a fitted effect of over 55% in size
Applied conditions: P450-Glo CYP2D6 enzyme, luciferin luminescence, 1 h; series mostly up to 57.4 µM
Inconclusive results are not listed. The source made the active and inactive calls. Calls follow the shape of the dose curve; as a rule, active = well fitted inhibition curve with a large enough effect in the repeat runs; inconclusive = weak or mixed curves; inactive = flat fitted curve, though single readings scatter.
Log the outcome using a class from active, inactive

| Compound | Class label |
| --- | --- |
| COc1ccc2nc(SCc3ncc(C)c(OC)c3C)[nH]c2c1 | active |
| CCCCN(CCN(CCCC)C(=O)N1CCOCC1)C(=O)N1CCOCC1 | inactive |
| Cc1c(C)c2c(c(C)c1OC(=O)CCC(=O)OCCO)CC[C@@](C)(CCC[C@H](C)CCC[C@H](C)CCCC(C)C)O2 | active |

Short answer needed: outcome of this test for O=c1[nH]sc2cc(Cl)ccc12 ? inactive

Short answer needed: outcome of this test for COc1cc2c(cc1OC)C(=O)CC2 ? inactive

Short answer needed: outcome of this test for O=S(=O)(O)c1ccc2nc(-c3ccccc3)[nH]c2c1 ? active

Short answer needed: outcome of this test for Cc1cnc(NS(=O)(=O)c2ccc(N)cc2)nc1 ? inactive

Short answer needed: outcome of this test for COCCOCC(OC)OC ? inactive

Short answer needed: outcome of this test for CN(C)[C@@H]1C(=O)C(C(N)=O)=C(O)[C@@]2(O)C(=O)C3=C(O)c4c(O)cccc4C[C@H]3C[C@@H]12 ? inactive

Short answer needed: outcome of this test for CC(C)(C)c1ccc(C(=O)CCCCl)cc1 ? inactive

Short answer needed: outcome of this test for CC(=O)OCC(=O)Nc1cc(C#N)cc(NC(=O)COC(C)=O)c1Cl ? inactive

Short answer needed: outcome of this test for CC(Oc1c(Cl)cccc1Cl)C1=NCCN1 (configuration not stated) ? active

###

Test details: A High-Content qHTS Against Drug Library for the Identification of Small Molecules that Inhibit DYT1 Early Onset Primary Dystonia-Associated Cell Pathology (AID 1645839)
Applied conditions: HEK293 Flp-In EGFP-delE TorsinA, punctate imaging, 48 h; series mostly up to 46.1 µM
Results filed as inconclusive are left out. The source made the active and inactive calls. Calls follow the shape of the full dose curve.
Assay endpoint: Potency

| Compound | Potency |
| --- | --- |
| N#CC1(c2ccc(F)cc2)CCC(=O)CC1 | inactive |
| CC(C)OC(=O)c1cc2c(OCC(O)CNC(C)(C)C)cccc2[nH]1 (configuration not stated) | inactive |
| O=C(CO)[C@@H](O)[C@H](O)[C@@H](O)CO | inactive |
| CN1CCC(=C2c3ccccc3CCc3cccnc32)CC1 | inactive |
| O=C(NO)c1ccccc1 | inactive |
| CO/N=C(/C(=O)N[C@@H]1C(=O)N2C(C(=O)OCOC(=O)C(C)(C)C)=C(C)CS[C@H]12)c1csc(N)n1 | inactive |

Per the records, this compound ( Cc1onc(-c2c(Cl)cccc2Cl)c1C(=O)Cl ) has Potency equal to inactive
